Test system: UACC-257 melanoma
Protocol Summary: NCI tumour cell line growth inhibition, 48 h
Property Measured: TGI

Previously resolved entries follow.
CCOC(=O)/C(C#N)=C/N(CC)/N=C/c1ccccc1
> 100 µM
C/C(=N\Nc1ccccc1)C(CN(C)C)C(c1ccccc1)c1c(O)c2ccccc2oc1=O (stereo unspecified)
> 100 µM
NC(N)=N/N=C/c1c(-c2ccc(Cl)c([N+](=O)[O-])c2)nc2n1CCS2
51.8 µM
Cc1cc(NC(=O)NC(=O)c2ccccc2N(C)C)ccc1Oc1ncc(Br)cn1
> 100 µM

Using known records, supply TGI for O=[N+]([O-])c1ccc(NS(=O)(=O)C(F)(F)F)cc1
> 100 µM

Using known records, supply TGI for CC1=C2NCN(C)N=C2C(C#N)(C#N)C1(C#N)C#N
33.9 µM

====

Item-by-item account of TGI
Test system: SW-620 colon
Protocol Summary: NCI tumour cell line growth inhibition, 48 h

Using known records, supply TGI for O=C(CSc1nc2ccc(I)cc2c(=O)n1Cc1ccccc1)NN1C(=O)CCC1=O
> 100 µM

====

Tested on: SK-OV-3 ovarian
Protocol Summary: NCI tumour cell line growth inhibition, 48 h
Property Measured: TGI

Previously resolved entries follow.
O=C(/C=C/c1cn(-c2ccccc2)nc1-c1ccc([N+](=O)[O-])cc1)c1ccc(Cl)cc1
> 77.3 µM
COC(=O)[C@H](Cc1ccccc1)NC(=O)c1csc([C@@H](C[C@H](C(C)C)N(C)C(=O)[C@@H](NC(=O)[C@H]2CCCN2C)C2CC2)OC(C)=O)n1
> 33.3 µM
CNc1ccc(Cl)cc1S(=O)(=O)c1ccccc1[N+](=O)[O-]
> 100 µM
CC(C)=CCC[C@@H](C)c1c2[nH]c3ccccc3sc-2c(C)c(=O)c1=O
> 75 µM
CCOC(=O)c1nc2ccccc2nc1NCc1ccc(Cl)cc1Cl
> 100 µM

System SK-OV-3 ovarian. Read-out TGI. Item CCOC(=O)/C(C#N)=C/N(CC)/N=C/c1ccccc1 . Report value.
> 100 µM

System SK-OV-3 ovarian. Read-out TGI. Item O=C1CC2(CCNCC2)C(=O)N1N1CCOCC1 . Report value.
> 100 µM

System SK-OV-3 ovarian. Read-out TGI. Item O=C(O)[C@@H]1CCCC[C@@H]1C(=O)N(C1CCCCC1)C1CCCCC1 . Report value.
> 100 µM

System SK-OV-3 ovarian. Read-out TGI. Item Cn1cc(CO)c2ccccc21 . Report value.
> 100 µM

System SK-OV-3 ovarian. Read-out TGI. Item OC12CCCCCC1(N1CCOCC1)c1ccccc12 (configuration not stated) . Report value.
> 100 µM

System SK-OV-3 ovarian. Read-out TGI. Item COc1cccc(CN(C(=O)/C=C\Sc2ccccc2)C(C)(C)C)c1 . Report value.
> 100 µM

System SK-OV-3 ovarian. Read-out TGI. Item CC1(C)COC(c2c(-c3ccccc3)noc2CS(=O)c2ccccc2)=N1 (configuration not stated) . Report value.
> 100 µM

====

Test system: NCI-H23 lung
Protocol Summary: NCI tumour cell line growth inhibition, 48 h
Property Measured: GI50

Previously resolved entries follow.
CCN(CC)CCOc1ccc(/C=C2\CC3C4CC=C5C[C@@H](OC(C)=O)CC[C@]5(C)C4CC[C@]3(C)C2=O)cc1OC (some centres undefined)
12.4 µM
Cn1cc(CO)c2ccccc21
48.2 µM
O=c1oc2ccc(F)cc2c(=O)n1-c1ccc(Br)cc1F
0.481 µM

# ---- query molecule ----
Using known records, supply GI50 for C=CC1=CC(C)C[C@]1(O)C(=O)OC (some centres undefined)
> 100 µM
